Provide the reported TGI of each item.
System: MALME-3M melanoma
Assay: NCI tumour cell line growth inhibition, 48 h

// known answers, use as guide
Molecule	TGI
CCOC(=O)NC(=O)c1cn(C2OC(COC(=O)CCCCCCCCC(=O)OCC3OC(n4cc(C(=O)NC(=O)OCC)c(=O)[nH]c4=O)C(O)C3O)C(O)C2O)c(=O)[nH]c1=O (centres undefined)	> 100 µM
CC1=C2C(=O)NN=C2CCN1c1ccc(Br)cc1	> 100 µM
CN1CCN(Cc2ccc(NC(=O)c3cncc(C#Cc4cnc(N)c5ccc(C#N)cc45)c3)cc2C(F)(F)F)CC1	0.0943 µM
Nc1nc2cc3nc(N)c(N)nc3cc2nc1N	> 100 µM
COc1cc(O)c(/C=N/N=C(\N)NO)c(OC)c1	> 10 µM

Would you be so kind as to report TGI for each listed record?
1. C=C(C(=O)C(=O)Oc1ccc(Cl)cc1)C(=O)c1ccc(C)cc1
2. CCCCC/C(C=C(C#N)C#N)=C/c1ccccc1
3. COCOC1/C=C/CCCCC2=C(C)C=C(C1)O2 (centres undefined)
4. COc1cc2c3c(n(C)c(=O)c2cc1OC)-c1cc2c(cc1/C3=C\CCCN1C(=O)c3ccccc3C1=O)OCO2
5. CCCCCCCCCC[C@@H](O)[C@@H]1CC[C@H]([C@H]2CC[C@@H]([C@@H](O)CCCCCCCCCC[C@H]3CC(CC(C)=O)C(=O)O3)O2)O1 (some centres undefined)
6. CC1(C)OCC(COC(=O)C=[N+]=[N-])O1 (centres undefined)

> 100 µM
16.5 µM
> 100 µM
> 40 µM
19.1 µM
> 100 µM

Would you be so kind as to report TGI for each listed record?
1. CCN1CC2=C(NC(=S)NC2c2ccc(Cl)cc2)/C(=C/c2ccc(Cl)cc2)C1 (centres undefined)
2. CC(O[Si](c1ccccc1)(c1ccccc1)C(C)(C)C)[C@H](NC(=O)OC(C)(C)C)C(=O)O[Si](c1ccccc1)(c1ccccc1)C(C)(C)C (some centres undefined)
3. Nc1ccn(C2O[C@H](CO)[C@@H](O)[C@@H]2O)c(=O)n1 (some centres undefined)
4. CC1OC(n2cc(F)c(=O)[nH]c2=O)CCC1O (centres undefined)
5. O=C(O)c1cc2c(cc1CC(Cc1ccc3c(c1)CCC3)C(=O)O)CCC2 (centres undefined)
6. CCN(CC)c1c(C(=O)/C=C/c2ccccc2)c(-c2ccccc2)nn(C)c1=O
7. CC1=C(O)C(=O)[C@@H]2O[C@@H]2C1=O

["> 100 µM", "34.3 µM", "> 100 µM", "> 100 µM", "> 100 µM", "> 100 µM", "17.2 µM"]

* * *

System: SK-MEL-28 melanoma
Test: NCI tumour cell line growth inhibition, 48 h
Where a SMILES comes first, the peptide text is derived from it. The star is where a group is joined. Boc = CC(C)(C)OC(=O)*
Experimental Readout: TGI

Compound	TGI
Clc1ccc(C2N3CCCCC3[C@@H]3c4[nH]c5ccccc5c4CCN23)cc1 (stereo partly specified)	> 100 µM

Would you be so kind as to report TGI for each listed record?
1. O=C(O)Cn1ccc(=O)c2ccc([N+](=O)[O-])cc21
2. O=C(CC(=O)n1nc(-c2ccccc2)c(N=Nc2ccccc2C(=O)O)c1-c1ccccc1)Nc1ccc(Cl)cc1
3. O=C1/C(=C/c2ccccc2)N=C(c2ccccc2)N1n1c(-c2ccccc2)nc2ccccc2c1=O
4. COc1ccc(/C(=C2\O[C@@H]([C@H]3COC(C)(C)O3)[C@H]3OC(C)(C)O[C@@H]23)c2cc(OC)c(OC)c(OC)c2)cc1O
5. CC(C)=CCOC(=O)C(C)=[N+]=[N-]
6. O=C1CCC[C@@H]2NC[C@@H](c3ccc4c(c3)OCO4)[C@H]12
7. COC(=O)CNC(=O)C(Cc1ccccc1)NC(=O)C(CCSC)NC(=O)C(Cc1ccc(O)cc1)NC(=O)OC(C)(C)C (stereo unspecified) (Boc-YMFG-OMe; configuration not given here)

["> 100 µM", "> 100 µM", "> 100 µM", "> 100 µM", "> 100 µM", "> 25 µM", "34.8 µM"]

* * *

System: KM12 colon
Assay: NCI tumour cell line growth inhibition, 48 h
Provide the reported TGI of each item.

// known answers, use as guide
Molecule	TGI
COC(=O)C1(C(=O)OC)CC2=C(S(=O)(=O)c3ccccc3)C[C@H](S(=O)(=O)c3ccccc3)[C@H]2C1	> 100 µM
CCOC(=O)CCc1cc(=O)oc2cc(O)cc(O)c12	> 100 µM
CCOc1cccc(/C=N/NC(=O)c2ccccc2Nc2ccnc(C(F)(F)F)c2)c1O	47.7 µM
NC(C(F)(F)F)(C(F)(F)F)P(=O)(Cc1ccccc1)Cc1ccccc1	> 100 µM
Oc1ccc(/C=C/c2cc(O)cc(O)c2)cc1	> 100 µM
CCCCCCCCCCCCCC(=O)OC1CC(=O)OC1CO (centres undefined)	56.7 µM
CC(=O)OCC(C)C1=C(O)C(=O)C2(C)C/C=C(/C)CC/C=C(\C)CCC(O)C(C)CCC12 (centres undefined)	28.7 µM
C[N+]1=C2[B-](C(C)(C)C)=[N+](C(C)(C)C)[B-]2(C(C)(C)C)[N+](C)=C2[B-](C(C)(C)C)=[N+](C(C)(C)C)[B-]21C(C)(C)C (centres undefined)	> 100 µM

Given the molecule `O=C(Nc1ccc(Br)cc1)c1c(-c2ccccc2)c2ccc(O)cc2oc1=O` , write its reported TGI.
> 10 µM

* * *

Tested on: RPMI-8226 leukemia
Experiment: NCI tumour cell line growth inhibition, 48 h
*1 amine or outer side, *2 acyl side, *3 side chain or, on linkers, in order; H or OH if unused. Where a SMILES comes first, the peptide text is derived from it. Bridges are numbered along the chain shown (N, C = ends). [ ]: non-standard residue; d: D form. The star is where a group is joined. ξ: configuration not given here. X34 = O=C(C(CCCCNO[*:3])N[*:1])[*:2]; Fmoc = O=C(OCC1c2ccccc2-c2ccccc21)*; ξW = NC(Cc1c[nH]c2ccccc12)C(=O)O; ξP = O=C(O)C1CCCN1
Experimental Readout: TGI

Compound	Subject Of Test	TGI
O=C(Nc1ccc(Br)cc1)c1c(-c2ccccc2)c2ccc(O)cc2oc1=O	RPMI-8226 leukemia	> 10 µM
CNC(=O)OCc1c(COC(=O)NC)c(-c2ccc(Cl)c(Cl)c2)n2c1SCC2	RPMI-8226 leukemia	39.7 µM
CN(C)CCCOc1nc2c(c(=O)n(C)c(=O)n2C)n1C (tested in a mixture with another compound)	RPMI-8226 leukemia	> 100 µM
O=C1C=CC(=Nc2ccc3c(c2)C(Br)c2ccccc2-3)O1 (centres undefined)	RPMI-8226 leukemia	> 100 µM
CC[CH2][Pb]([CH2]CC)([CH2]CC)[O]C(=O)C(F)(F)F	RPMI-8226 leukemia	0.403 µM
COC(=O)C[C@H]1CCC2(OCCO2)[C@]1(C)C(=O)OC	RPMI-8226 leukemia	> 100 µM

Would you be so kind as to report TGI for each listed record?
1. NC(=O)CNC(=O)C1CCCN1C(=O)C1CCCCNOC(=O)CC[C@@H](NC(=O)OCC2c3ccccc3-c3ccccc32)C(=O)NC(Cc2c[nH]c3ccccc23)C(=O)N1 (some centres undefined) (Fmoc-[dE][ξW][X34][ξP]G-NH2; ester 1-3)
2. COCCOCOc1ccc(OCc2ccccc2)cc1

> 100 µM
> 100 µM

Given the compound `O=C(/C=C/c1ccc(O)c([N+](=O)[O-])c1)CC(=O)/C=C/c1ccc(O)c([N+](=O)[O-])c1` , write its reported TGI.
34.5 µM

* * *

Tested on: ACHN renal
Experiment: NCI tumour cell line growth inhibition, 48 h
Provide the reported TGI of each item.

Would you be so kind as to report TGI for each listed record?
1. COc1cc2c(cc1OC)C1=Cc3cc(OC)c(OC)cc3C(C)N1C=C2 (stereo not given)
2. COc1cccc2c(N)c3cccc(C(=O)NCCN(C)C)c3nc12
3. COc1ccccc1N/C(=C\C(=O)C(=O)NC12CC3CC(CC(C3)C1)C2)c1ccccc1
4. O=C1OCc2c1cc1ccc(O)c(OC3OC(CO)C(O)C(O)C3O)c1c2-c1ccc2c(c1)OCO2 (stereo not given)
5. CN(C)CCCOC(=O)C(c1ccccc1)C1(O)CCSCC1 (stereo not given)
6. CC1(Cl)C(=O)NC(=O)N(C2CC(N=[N+]=[N-])C(CO)O2)C1N=[N+]=[N-] (stereo not given)
7. COc1ccc(N2C(=O)C3c4[nH]c5ccc(OCc6ccccc6)cc5c4C4CCC(C(C)(C)C)CC4C3C2=O)cc1 (stereo not given)
8. CCN(CC)c1c(C(=O)/C=C/c2ccccc2)c(-c2ccccc2)nn(C)c1=O

1: > 100 µM; 2: 2.03 µM; 3: > 10 µM; 4: > 100 µM; 5: > 100 µM; 6: > 100 µM; 7: > 100 µM; 8: > 100 µM

Would you be so kind as to report TGI for each listed record?
1. CSc1nc(Cl)c2c(n1)Sc1nc3cc4c(cc3n1C2O)OCCO4 (stereo not given)
2. COc1ccc(C2Oc3c(cc(O)c(OC)c3C)[C@@H]2C)cc1OC (stereo not given in full)
3. OCc1ccc2[n+](c1)CCC1c3ccccc3NC21 (stereo not given)
4. CCN1CC2=C(NC(=S)NC2c2ccc(Cl)cc2)/C(=C/c2ccc(Cl)cc2)C1 (stereo not given)
5. COc1ccc2c(c1)c(-c1nc(-c3cn(C)c4ncccc34)cs1)cn2CCCN1CCCCC1
6. CC1(C)OCC(COC(=O)C=[N+]=[N-])O1 (stereo not given)
7. C[N+]1=C2[B-](C(C)(C)C)=[N+](C(C)(C)C)[B-]2(C(C)(C)C)[N+](C)=C2[B-](C(C)(C)C)=[N+](C(C)(C)C)[B-]21C(C)(C)C (stereo not given)

1. 26.8 µM
2. > 100 µM
3. > 300 µM
4. > 100 µM
5. 3.06 µM
6. > 100 µM
7. > 100 µM
